biological target: muscle receptors (nicotinic receptors of human muscle) (Homo sapiens, UniProt P02708+P07510+Q07001); construct: endogenous in cells; host or cells: cell preparations derived from muscle; test: Determination of interaction with muscle; assay type: cell-based; settings: maximal activation (Emax) as percentage of maximal activation induced by (S)-(-)-nicotine
Sequence (P02708 21-457): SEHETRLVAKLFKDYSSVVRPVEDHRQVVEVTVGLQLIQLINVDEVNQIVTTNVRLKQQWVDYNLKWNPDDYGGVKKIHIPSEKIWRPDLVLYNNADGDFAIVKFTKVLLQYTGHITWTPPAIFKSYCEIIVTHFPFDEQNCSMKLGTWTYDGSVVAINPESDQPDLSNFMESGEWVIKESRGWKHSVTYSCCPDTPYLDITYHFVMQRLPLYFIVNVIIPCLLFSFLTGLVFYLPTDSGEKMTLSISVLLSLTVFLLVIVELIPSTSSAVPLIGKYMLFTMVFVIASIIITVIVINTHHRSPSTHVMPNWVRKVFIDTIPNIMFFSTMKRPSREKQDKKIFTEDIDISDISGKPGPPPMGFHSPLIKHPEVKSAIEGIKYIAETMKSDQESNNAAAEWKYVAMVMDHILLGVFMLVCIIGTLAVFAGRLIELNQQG
Sequence (P11230 24-501 partner): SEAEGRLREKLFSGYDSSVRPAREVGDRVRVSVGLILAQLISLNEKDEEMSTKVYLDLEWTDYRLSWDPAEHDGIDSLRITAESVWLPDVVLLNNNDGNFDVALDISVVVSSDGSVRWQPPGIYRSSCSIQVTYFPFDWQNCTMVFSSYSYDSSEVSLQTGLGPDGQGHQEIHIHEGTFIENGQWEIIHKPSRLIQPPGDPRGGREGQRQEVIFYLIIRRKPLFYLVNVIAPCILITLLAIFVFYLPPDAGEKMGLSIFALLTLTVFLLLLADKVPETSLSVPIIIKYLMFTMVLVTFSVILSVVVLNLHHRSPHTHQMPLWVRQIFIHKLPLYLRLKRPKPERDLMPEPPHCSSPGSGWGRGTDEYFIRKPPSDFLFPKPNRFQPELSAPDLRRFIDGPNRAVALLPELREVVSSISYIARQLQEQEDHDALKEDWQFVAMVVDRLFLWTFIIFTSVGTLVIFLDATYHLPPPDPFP
Sequence (Q07001 22-517): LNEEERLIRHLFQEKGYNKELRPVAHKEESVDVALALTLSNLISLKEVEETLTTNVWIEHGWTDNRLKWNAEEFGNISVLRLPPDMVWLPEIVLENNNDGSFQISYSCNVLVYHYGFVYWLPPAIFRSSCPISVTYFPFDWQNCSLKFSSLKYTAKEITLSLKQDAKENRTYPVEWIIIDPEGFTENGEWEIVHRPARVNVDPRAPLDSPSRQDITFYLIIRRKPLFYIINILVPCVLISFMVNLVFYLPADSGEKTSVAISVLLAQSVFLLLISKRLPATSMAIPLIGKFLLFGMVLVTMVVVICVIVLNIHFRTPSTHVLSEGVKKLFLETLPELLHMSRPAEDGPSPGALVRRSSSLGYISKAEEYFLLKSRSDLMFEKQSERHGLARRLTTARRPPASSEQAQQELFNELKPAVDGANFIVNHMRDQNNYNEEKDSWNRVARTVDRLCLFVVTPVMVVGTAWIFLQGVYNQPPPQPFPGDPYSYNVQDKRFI
Sequence (P07510 23-517): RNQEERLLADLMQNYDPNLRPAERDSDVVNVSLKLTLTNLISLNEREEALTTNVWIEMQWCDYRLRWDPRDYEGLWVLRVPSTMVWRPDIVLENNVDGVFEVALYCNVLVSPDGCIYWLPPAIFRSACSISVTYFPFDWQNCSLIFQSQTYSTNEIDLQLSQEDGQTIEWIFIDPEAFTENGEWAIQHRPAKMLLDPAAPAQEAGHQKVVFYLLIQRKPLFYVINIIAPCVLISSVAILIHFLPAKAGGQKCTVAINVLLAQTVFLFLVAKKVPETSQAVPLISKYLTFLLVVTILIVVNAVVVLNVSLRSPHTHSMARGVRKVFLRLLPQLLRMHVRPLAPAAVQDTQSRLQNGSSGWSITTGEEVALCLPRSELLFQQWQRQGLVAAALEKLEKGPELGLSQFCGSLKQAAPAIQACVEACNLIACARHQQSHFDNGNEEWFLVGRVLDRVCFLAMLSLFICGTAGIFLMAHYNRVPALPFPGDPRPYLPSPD
Provide the reported Muscle Effect (% nicotine) of each item.

Recorded results for 5 compounds are shown here.
compound: CNCC/C=C/c1cncc(Oc2ccccc2)c1
test-value: 5 % nicotine
//
compound: NCC/C=C/c1cncc(Br)c1
test-value: 8 % nicotine
//
compound: CNCC/C=C/c1cncc(N)c1
test-value: 4 % nicotine
//
compound: CCOc1cncc(/C=C/CCNC)c1
test-value: 3 % nicotine
//
compound: CNCC/C=C/c1cncc(OC(C)C)c1
test-value: 8 % nicotine

Quick batch: Muscle Effect (% nicotine) for everything below.
1. CNCC/C=C/c1cncc(-c2ccccc2)c1
2. CNCC/C=C/c1cncc(COC)c1

Return:
["8 % nicotine", "13 % nicotine"]

For each entry beneath this line, provide reported Muscle Effect (% nicotine).
1. CNCC/C=C/c1cncc(OCc2ccccc2)c1
2. NCC/C=C/c1cccnc1.O=C(O)/C=C/C(=O)O.O=C(O)/C=C/C(=O)O
3. CN1CCC[C@H]1c1cccnc1 [Sample No. C-1, (S)-(−)-nicotine, reference compound]

Return:
1: 12 % nicotine; 2: 15 % nicotine; 3: 100 % nicotine
